target: Cytochrome P450 2C19 (Homo sapiens) (UniProt P33261); assay: Cytochrome panel assay with activity outcomes; conditions: recombinant CYP, pro-luciferin dealkylation, luminescence, p450-cyp2c19; series mostly up to 57.1 µM
Sequence (P33261 whole entry, looked up): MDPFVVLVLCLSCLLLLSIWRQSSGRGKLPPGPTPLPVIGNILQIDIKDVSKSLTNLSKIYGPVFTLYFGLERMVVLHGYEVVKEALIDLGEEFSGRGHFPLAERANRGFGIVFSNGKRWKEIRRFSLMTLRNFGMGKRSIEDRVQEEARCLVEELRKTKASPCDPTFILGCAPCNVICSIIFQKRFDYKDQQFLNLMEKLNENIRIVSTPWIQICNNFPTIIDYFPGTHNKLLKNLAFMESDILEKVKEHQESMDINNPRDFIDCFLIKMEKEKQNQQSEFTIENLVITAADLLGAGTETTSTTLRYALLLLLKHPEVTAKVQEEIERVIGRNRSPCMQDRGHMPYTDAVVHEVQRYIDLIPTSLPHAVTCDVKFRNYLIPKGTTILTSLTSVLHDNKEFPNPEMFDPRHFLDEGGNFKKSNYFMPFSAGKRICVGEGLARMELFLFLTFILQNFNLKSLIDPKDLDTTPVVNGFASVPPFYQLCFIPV
Hit rate of the full screen: of about 16,000 compounds, about 5,800 (36%) were called active. About 23% were inconclusive and are not listed. Calls come from the whole dose curve; as a rule, active = well fitted curve in the direction sought with a large enough effect; inconclusive = small, poorly fitted or top-dose-only effect, or effect the other way; inactive = no such curve, though single readings can be large or run the other way. The list shows a part of the results.
Please state which outcome applies, choosing from active, inactive

Look over these answered cases.
{"compound": "Clc1ccccc1-c1nc(-n2ccnc2)c2ccccc2n1", "tested-system": "Cytochrome P450 2C19 (Homo sapiens) (UniProt P33261)", "category": "active"}
{"compound": "Clc1ccccc1-c1nccc(-n2ccnc2)n1", "tested-system": "Cytochrome P450 2C19 (Homo sapiens) (UniProt P33261)", "category": "active"}

Returns: the outcome recorded for FC(F)(F)c1ccccc1-c1nccc(N2CCNCC2)n1 in this assay. inactive

Returns: the outcome recorded for Cc1ccc(-n2nnnc2C(=Cc2ccc(N(C)C)cc2)c2nnnn2-c2ccc(C)cc2)cc1 in this assay. active

###

target: Cytochrome P450 2C19 (Homo sapiens) (UniProt P33261); assay: Cytochrome panel assay with activity outcomes; conditions: recombinant CYP, pro-luciferin dealkylation, luminescence, p450-cyp2c19; series mostly up to 57.1 µM
About 5,800 (36%) of roughly 16,000 compounds were called active. Not shown: some 23% with an inconclusive outcome. The list shows a part of the results.
measurement-type: AC50

Example molecules with recorded AC50:
{"molecule": "Cc1ccccc1NC1=C(C(=O)c2ccccc2)N(C)S(=O)(=O)c2ccccc21", "AC50": "8.91 µM (active)"}
{"molecule": "Cc1ccc(C(CC(=O)c2ccco2)SCCO)cc1 (stereo not drawn)", "AC50": "2.82 µM (active)"}
{"molecule": "CCOC(=O)C1=C(O)/C(=C/c2cc(OC)c(OC)c(OC)c2)N=C1C", "AC50": "inactive"}
{"molecule": "CCOc1cc(/C=C2\\N=C(C)OC2=O)cc(Br)c1OCC(=O)OC", "AC50": "inactive"}

Parameters: items (list). Returns: AC50 for each item.
1. O=C(CC(NS(=O)(=O)c1ccc(Cl)cc1)c1ccco1)NCc1ccco1 (stereo not drawn)
2. O=C1C(SCCO)=C(SCCO)C(=O)c2ccccc21

1. 7.94 µM (active)
2. 0.0794 µM (active)

Parameters: items (list). Returns: AC50 for each item.
1. O=C(O)/C=C1\NC(=O)c2ccccc21
2. CCC(=O)NC(=S)N1CCN(c2ccc([N+](=O)[O-])cc2Cl)CC1
3. N#Cc1cccc(-c2nc3cnc(Nc4ccccc4)nc3n(C[C@H]3CCCO3)c2=O)c1
4. COc1ccc(NC(=O)CCSc2cc(C)c3ccccc3n2)cc1
5. Cc1ccc([N+](=O)[O-])cc1NC(=S)NC(=O)CC(C)(C)C

1: inactive; 2: 2.82 µM (active); 3: inactive; 4: 7.94 µM (active); 5: 4.47 µM (active)

Parameters: items (list). Returns: AC50 for each item.
1. Cc1ccc([N+](=O)[O-])cc1NC(=S)NC(=O)C(C)(C)C
2. COc1ccc(C2=Nc3cccc4cccc(c34)N2)cc1
3. O=C1/C(=C/c2cccnc2)SC(=S)N1Cc1ccco1
4. COc1ccccc1NC(=O)CSc1nc2ccccc2cc1Cc1ccccc1
5. CN(C)C(=N)N=C(N)N
6. CCc1cc2c(NCc3ccco3)ncnc2s1

["2 µM (active)", "inactive", "3.16 µM (active)", "0.0398 µM (active)", "inactive", "4.47 µM (active)"]

Parameters: items (list). Returns: AC50 for each item.
1. O=C1N/C(=C\c2ccc(N3CCOCC3)c(F)c2)C(=O)N1Cc1ccccc1
2. CC#CCOC(=O)c1c(C)nc2sc3c(c2c1N)CC[C@@H](O)C3
3. CC(C)CO/N=C1/C[C@@H](O)[C@@H](O)[C@@H]2[C@@H]3C(=O)N(Cc4ccc5c(c4)OCO5)C(=O)[C@H]3CC[C@H]12
4. CCCNC(=O)CC(NS(=O)(=O)c1ccc(Cl)cc1)c1ccco1 (stereo not drawn)
5. CN(CCc1ccccn1)c1ccc2c(c1)C(=O)c1ccccc1-2
6. CN(CCc1ccccn1)c1ccc2c(c1)Cc1ccccc1-2

1: 14.1 µM (active); 2: 25.1 µM (active); 3: 3.98 µM (active); 4: 1 µM (active); 5: 2.51 µM (active); 6: 0.794 µM (active)

// data source = PubChem BioAssay AID1851
